target.of.assay: Endothelin-1 receptor (rabbit)
assay.notes: Tested for binding affinity towards rabbit Endothelin A receptor
test.readout: IC50 (µM)
Answer in µM, number only, no unit symbol.

Notebook: C/C=C/C=C/C(=O)O[C@@H]1C=C2COC(O)[C@]2(O)[C@@]2(C)CCCC(C)(C)C12 (stereo partly specified) , IC50 read as 50
